tgt: T1, mouse ICOS-mFc (Chimerigen) (mouse, UniProt Q9WVS0 21-141, limits assumed)
T1 construct: also called mouse ICOS receptor; mouse ICOS Receptor; not shown: mouse Fc of the bought construct
T1 sequence: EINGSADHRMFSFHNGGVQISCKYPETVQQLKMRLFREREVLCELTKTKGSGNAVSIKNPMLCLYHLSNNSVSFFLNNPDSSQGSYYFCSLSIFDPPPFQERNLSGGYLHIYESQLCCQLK
protocol_notes: HTRF neutralisation of Alexa 647 mouse B7-H2 binding to mouse ICOS-mFc; human IgG1; mean, n = 3
pIC50: −log10 of the molar value.
measurement_label: pIC50

- STIM002 human IgG1 (antibody, V domains shown, Human IgG1 format) VH: QVQLVQSGGEVKKPGASVKVSCKASGYTFTSYGFSWVRQAPGQGLEWMGWISAYNGNTNYAQKLQGRVTMTTDTSTSTAYMELRSLRSDDTAVYYCARSTYFYGSGTLYGMDVWGQGTTVTVSS VL: DIVMTQSPLSLPVTPGEPASISCRSSQSLLHSDGYNYLDWYLQKPGQSPQLLIYLGSTRASGFPDRFSGSGSGTDFTLKISRVEAEDVGVYYCMQALQTPLSFGQGTKLEIKR: 8.16
- STIM003 human IgG1 (antibody, V domains shown, Human IgG1 format; Conjugated with AF647 in the direct staining assays, coupled to beads or plates in the MJ cell assays; also called STIM003 (hIgG1); STIM003 hIgG1) VH: EVQLVESGGGVVRPGGSLRLSCVASGVTFDDYGMSWVRQAPGKGLEWVSGINWNGGDTDYSDSVKGRFTISRDNAKNSLYLQMNSLRAEDTALYYCARDFYGSGSYYHVPFDYWGQGILVTVSS VL: EIVLTQSPGTLSLSPGERATLSCRASQSVSRSYLAWYQQKRGQAPRLLIYGASSRATGIPDRFSGDGSGTDFTLSISRLEPEDFAVYYCHQYDMSPFTFGPGTKVDIKR: 10.00
- STIM002-B human IgG1 (antibody, V domains shown, Human IgG1 format) VH: QVQLVQSGGEVKKPGASVKVSCKASGYTFTSYGFSWVRQAPGQGLEWMGWISAYNGNTNYAQKLQGRVTMTTDTSTSTAYMELRSLRSDDTAVYYCARSTYFYGSGTLYGMDVWGQGTTVTVSS VL: DIVMTQSPLSLPVTPGEPASISCRSSQSLLHSDGYNCLDWYLQKPGQSPQLLIYLGSTRASGFPDRFSGSGSGTDFTLKISRVEAEDVGVYYCMQALQTPCSFGQGTKLEIKR: 7.52
- STIM001 human IgG1 (antibody, V domains shown, Human IgG1 format; Conjugated with AF647 in the direct staining assays, coupled to beads or plates in the MJ cell assays; also called STIM001 (hIgG1); STIM001 hIgG1) VH: QVQVVQSGAEVKKPGASVKVSCKASGYTFSTFGITWVRQAPGQGLEWMGWISAYNGDTNYAQNLQGRVIMTTDTSTSTAYMELRSLRSDDTAVYYCARSSGHYYYYGMDVWGQGTTVTVSS VL: DIVMTQSPLSLPVTPGEPASISCRSSQSLLHSNEYNYLDWYLQKPGQSPQLLIFLGSNRASGVPDRFSGSGSGTDFTLKITRVEAEDVGIYYCMQSLQTPLTFGGGTKVEIKR: 8.19
